# target.desc: rat MCH-1 (Rattus norvegicus, UniProt P97639)
# Sequence (P97639 whole entry): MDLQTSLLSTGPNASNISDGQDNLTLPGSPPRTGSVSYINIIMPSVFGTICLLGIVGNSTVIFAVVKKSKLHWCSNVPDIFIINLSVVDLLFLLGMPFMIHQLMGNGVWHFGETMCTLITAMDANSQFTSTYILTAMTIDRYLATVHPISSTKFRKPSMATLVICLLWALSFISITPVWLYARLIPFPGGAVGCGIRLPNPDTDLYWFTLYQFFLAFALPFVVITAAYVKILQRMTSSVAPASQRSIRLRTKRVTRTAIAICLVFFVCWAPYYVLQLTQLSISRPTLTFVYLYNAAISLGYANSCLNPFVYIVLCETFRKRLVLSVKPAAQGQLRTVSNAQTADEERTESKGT
# protocol.text: Radioligand binding assay at cloned rat MCH1 receptor ([3H] Compound A)
# Design: host or cells: Peak rapid 293 (Peakr293) cells, transient calcium phosphate transfection, membranes
# protocol.conditions: cloned rat MCH1 receptor, membranes from Peakr293 cells, 0.08 nM [3H] Compound A; read-out: Ki (nM) rMCH1
measured.quantity: Ki (nM)

1 = Cc1onc(-c2c(Cl)cccc2Cl)c1C(=O)O[C@@H](CCN1CCC(c2cccc(NC(=O)C(C)C)c2)CC1)c1ccccc1 [Example 290]
2 = CCCc1nn(-c2ccc(Cl)cc2)cc1C(=O)N[C@@H](CCN1CCC(c2cccc(NC(=O)C(C)C)c2)CC1)c1ccccc1 [Example 316]
3 = Cc1ccc(NC(=O)C(C)C)cc1C1CCN(CCCC(c2ccc(F)cc2)c2ccc(F)cc2)CC1 [Example 275]
4 = COc1ccc(C(CCN2CCC(c3cccc(NC(=O)C(C)C)c3)CC2)Oc2ccc(Cl)cc2)cc1 (stereo not shown) [Example 178]
I'd appreciate it if you could rank the compounds mentioned above by Ki, largest value first. In your reply, arrange the labels in the requested order.
4, 1, 2, 3
(4: 119 nM, 1: 51.9 nM, 2: 8.3 nM, 3: 3.1 nM)

====

# target.desc: rat MCH-1 (Rattus norvegicus, UniProt P97639)
# protocol.text: Radioligand binding assay at cloned rat MCH1 receptor ([3H] Compound A)
# Set-up: host or cells: Peak rapid 293 (Peakr293) cells, transient calcium phosphate transfection, membranes
# protocol.conditions: cloned rat MCH1 receptor; 0.08 nM [3H] Compound A; Peakr293 cell membranes; read-out: Ki (nM) rMCH1
measured.quantity: Ki (nM)

smiles.code | Ki (nM)
O=C(CCCCN1CCC(c2cccc(NC(=O)C3CC3)c2)CC1)c1cccc([N+](=O)[O-])c1 | 27.5
CC(C)C(=O)Nc1cccc(C2CCN(CCCc3c(-c4cccc(I)c4)[nH]c4ccccc34)CC2)c1 | 1
CC(C)C(=O)Nc1cccc(C2CCN(CCCc3c(-c4cccc([N+](=O)[O-])c4)[nH]c4ccc(OC(F)(F)F)cc34)CC2)c1 | 17.5
CC(C)C(=O)Nc1cccc(C2CCN(CCCc3c(-c4cccc([N+](=O)[O-])c4)n(C)c4ccccc34)CC2)c1 | 14.9
CC(C)C(=O)Nc1cccc(C2CCN(CCCNC(=O)Cc3ccc(F)cc3)CC2)c1 | 36.3

1 = CC(C)C(=O)Nc1cccc(C2CCN(Cc3cn(-c4ccc(Cl)cc4)c4cc(Cl)ccc34)CC2)c1
2 = O=C(CCCCN1CCC(c2cccc(NC(=O)C3CC3)c2)CC1)c1ccc([N+](=O)[O-])cc1
Lower Ki: 1 or 2 ? # answer = label of selected item
1

====

# target.desc: rat MCH-1 (Rattus norvegicus)
# protocol.text: Radioligand binding assay at cloned rat MCH1 receptor ([3H] Compound A)
# Set-up: host or cells: Peak rapid 293 (Peakr293) cells, transient calcium phosphate transfection, membranes
# protocol.conditions: cloned rat MCH1 receptor; 0.08 nM [3H] Compound A; Peakr293 cell membranes; read-out: Ki (nM) rMCH1
measured.quantity: Ki (nM)

Example cases with answers are listed next.
compound | Ki (nM)
CC(C)C(=O)Nc1cccc(C2CCN(CC[C@H](NC(=O)Nc3ccccc3)c3ccccc3)CC2)c1 [Example 605] | 94.5
CC(C)C(=O)Nc1cccc(C2CCN(CCCc3c[nH]c4ccc(OC(F)(F)F)cc34)CC2)c1 [Example 416] | 12.6
CC(C)C(=O)Nc1cccc(C2CCN(CCCc3c(-c4ccccc4Br)n(-c4ccccc4)c4ccccc34)CC2)c1 [Example 784] | 121
O=C(CCCCN1CCC(c2cccc(NC(=O)C3CC3)c2)CC1)c1ccc(C(F)(F)F)cc1 [Example 565] | 49.2
CC(C)C(=O)Nc1cccc(C2CCN(Cc3cccc4c3ccn4-c3ccccc3F)CC2)c1 [Example 871] | 252

A = CC(C)C(=O)Nc1cccc(C2CCN(Cc3cn(-c4ccc([N+](=O)[O-])cc4)c4ccccc34)CC2)c1 [Example 438]
B = CC(C)C(=O)Nc1cccc(C2CCN(CCCc3c(-c4cccc(F)c4)[nH]c4ccc(OC(F)(F)F)cc34)CC2)c1 [Example 694]
Hey, which is lower on measured Ki, A or B ? Select an item and report its label.
A
